- PROTOCOL SUMMARY: probe aNog binding to arrayed compounds – biochemical, biotinylated probe, 635/667 nm fluorescence, primary screen (AID 1115);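 further: probe is biotinylated aNog protein used at 0.15 µg/mL for 1 h at 4 C; z-score combines 667 nm fluorescence of each spot with its signal to noise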
- RECORDED CONDITIONS: small-molecule microarray, higher = more signal
TEST READOUT: composite z-score

MOL SMILES | REPORTED RESULT
COC(=O)[C@H](Cc1ccc(O)cc1)N[C@@H](/C=C/C1CC1)[C@H](O)Cc1ccccc1 | -0.321
CN(C)CCCCNC(=O)[C@H]1C[C@H]2C(=O)NCC(=O)N2[C@H]1c1ccc(O)cc1 | -0.248
COc1ccc(C(=O)Nc2ccc(CN3C(=O)[C@@]4(O[C@@H](CCn5cc(CCO)nn5)[C@H]([Si](C)(C)c5ccc(OC)cc5)[C@H]4C)c4ccccc43)cc2)cc1 | 0.0117
N#Cc1ccc(-c2cccc(=O)o2)cc1 | 0.119
O=C1N(CCS(=O)(=O)c2ccccc2)c2ccccc2C[C@]12N=C(c1ccc(OCCCO)cc1)O[C@@H]2c1ccccc1 | 0.217
CN(C)CCCC[C@@H]1NC(=O)[C@@H]2C[C@H](C(=O)NCCCCCCNC(=O)CS)[C@H](c3ccc(O)cc3)N2C1=O | -0.0174
COC(=O)C[C@H]1O[C@@]2(C[C@@H]1[Si](C)(C)C)C(=O)N(C)c1ccccc12 | 0.273
COCCn1c(C(=O)N(C)C)cc2c1C[C@H]1CN(C(=O)c3ccccc3)[C@@](Cc3ccc(OC)cc3)(C(=O)OC)[C@@H]21 | 0.919

====

- PROTOCOL SUMMARY: compound effects on lung adenocarcinoma cell viability – A549, calcein-AM fluorescence, 48 h, basal, profiling panel (AID 1162); further: test concentration not given here
- RECORDED CONDITIONS: higher = more signal
TEST READOUT: z-score

COMPOUND | REPORTED RESULT
COC(=O)[C@@]1(Cc2ccc(F)cc2)[C@H]2c3cc(C(=O)N(C)C)n(CCc4ccc(O)c(O)c4)c3C[C@H]2CN1C(=O)c1ccccc1 | -0.681
COC(=O)C1=CC(CCCO)=CC(c2cccs2)N(Cc2cc3c(cc2Br)OCO3)C=C1C(=O)OC (centres undefined) | 0.236
C=CCOC(=O)[C@H]1[C@@H]2C(=O)O[C@@H](c3ccccc3)[C@@H](c3ccccc3)N2[C@@H](c2ccc(OCCOC(=O)[C@@H]3C[C@@H]4C(=O)N[C@@H](CCCC[N+](C)(C)C)C(=O)N4[C@@H]3c3ccc(O)cc3)cc2)[C@]12C(=O)Nc1ccc(I)cc12 | -0.717
O=C1O[C@@H](c2ccccc2)[C@@H](c2ccccc2)N2[C@@H](c3ccc(OCCO)cc3)[C@]3(C(=O)Nc4ccc(C#CC5(O)CCCCCC5)cc43)[C@@H](C(=O)Nc3nc4ccccc4s3)[C@H]12 | 0.324
O=C1N(Cc2ccccc2)c2ccccc2C[C@@]12COC(c1ccc(OCCCO)cc1)=N2 | -0.633
C=CCC(OC(C)=O)[C@@H]1[C@@H](N(Cc2ccc(-c3cccc(C(F)(F)F)c3)o2)C(=O)Cc2ccc(F)cc2)c2cc(OCCCO)ccc2N1C(=O)Cc1ccc2ccccc2c1 (some centres undefined) | -0.92
Cc1ccc(S[C@]2(C(=O)NC(C)C)CC(=O)N(C3CCCCC3)[C@@H]2c2ccc(CO)cc2I)cc1 | -0.0909
COC(=O)[C@@]1(Cc2ccc(F)cc2)[C@H]2c3cc(C(=O)N4CCCC4)n(CCc4ccccn4)c3C[C@H]2CN1C(=O)c1ccccc1 | 0.19
O=C1NC(=O)C2C1C=CC(C(O)c1ccc([N+](=O)[O-])cc1)N2Nc1ccccn1 (centres undefined) | 0.0411
CCOC(=O)C1=CC[C@@H](c2ccc(OC)cc2)N(S(=O)(=O)c2ccc(C)cc2)[C@H]1CC | 0.33
CC(C)(C)OC(=O)CC[C@]1(C(=O)NCC(O)CO)N=C(c2ccc(OCCCO)cc2)O[C@H]1c1ccccc1N=[N+]=[N-] (some centres undefined) | 0.0239
COc1ccc([Si](C)(C)[C@@H]2[C@@H](CC(=O)N3Cc4ccccc4C[C@H]3CO)O[C@]3(C(=O)N(Cc4cccc(N5CCOC5=O)c4)c4ccccc43)[C@H]2C)cc1 | -1.43
CN(C)C(=O)[C@@]1(Cc2ccccc2CN=[N+]=[N-])COC(c2ccc(OCCCO)cc2)=N1 | -0.113
CCCCCC1=C2CNC(CC(C)C)(C(=O)OC)C=C2C(C)C1=O (centres undefined) | -0.659
